Source of measurements: ChEMBL document CHEMBL4706687

Biological target: P2X purinoceptor 7 (Homo sapiens)
Experiment: Antagonist activity at human P2X7 receptor expressed in HEK293 cells assessed as reduction in benzoyl-ATP-induced YO-PRO-1 dye uptake at 10 uM pre-incubated for 20 mins before YO-PRO-1 addition and measured after 25 mins by fluorescence plate reader analysis relative to control
Type: cell-based
Conditions: time 45.0 min
ATTRIBUTE_MEASURED: inhibition

Consider the following illustrative entries.
1) COc1ncnc2c1ncn2CC(=O)c1ccc(Cl)cc1Cl ... 25%
2) Cn1c(=O)c2c(ncn2S(=O)(=O)c2cc(Cl)ccc2Cl)n(C)c1=O ... 4%

Here's the next entry for you.
INPUT: Recorded inhibition for Cn1cnc2c1c(=O)n(C(=O)c1ccccc1Cl)c(=O)n2C , please?
OUTPUT: 5%
